Below, each entry is listed alongside its reported growth inhibition.
Experiment: NCI Yeast Anticancer Drug Screen. Data for the mlh1 strain (AID 171);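 further: 0% = growth of vehicle-treated control cultures of the same strain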
Conditions: S. cerevisiae mlh1 strain growth inhibition; at 3.7 µM; stronger effect = higher value
This is part of a sample that, as a whole, favours compounds with a hit. Of some 79,000 tested, about 15% had one in any assay.
Write the answer as a number in %, unit excluded.

Use the examples below as a reference point.
>>> df
                                   compound      quantity_name  reading
0  CCN(CC)C(=S)N/N=C(/C)c1cccc(/C(C)=N\NC(=S)N(CC)CC)n1  growth inhibition       -7
1  CC(C)C1=CCC2C(=C1)CCC1C(C)(C(=O)O)CCCC21C (stereo not given) (tested in a mixture with another compound)  growth inhibition       11

For this compound ( `O=C1C(Nc2ccccc2)=C(Oc2ccccc2)C(=O)c2ccccc21` ), measured growth inhibition is 0

For this compound ( `CSC(=S)N/N=C(\C)c1cccc(C)n1` ), measured growth inhibition is -1

For this compound ( `CCC/C(Cl)=N\OC(=O)Nc1ccc(Br)cc1` ), measured growth inhibition is 19

For this compound ( `O=C(O)CNc1ccc(Cl)c(Cl)c1` ), measured growth inhibition is 1

For this compound ( `CCOC(=O)c1cc([N+](=O)[O-])cc([N+](=O)[O-])c1Sc1ncnc2nc[nH]c12` ), measured growth inhibition is 2

For this compound ( `CCCCOC(=O)N[C@H]1CCc2cc(OC)c(OC)c(OC)c2-c2ccc(SC)c(=O)cc21` ), measured growth inhibition is -3

For this compound ( `CO[C@H]1C[C@](C)(O)Cc2cc3c(c(O)c21)C(=O)c1c(O)cc2c(c1C3=O)O[C@@H]1O[C@@]2(C)[C@H](O)[C@@H](N(C)C)[C@@H]1O` ), measured growth inhibition is -38

For this compound ( `COC(=O)c1cc(-c2ccc(C)cc2)[nH]c(=O)c1C#N` ), measured growth inhibition is -2
